- Assay Summary: PK of Compound (A1) after intravenous dosing in mouse
- Type: in vivo
- Stated Conditions: in vivo, 0.4 mg/kg
Starred links: 1 amine or outer side, 2 acyl side, 3 side chain; linkers in the order of their positions; H or OH if unused. Positions of bridges follow the written chain, without caps; N, C: chain ends. Non-standard residues stand in square brackets, D forms with d. Residues, ends and D or L forms follow the SMILES beside them. *: point of attachment. Leu(3R-OH,Nα-propionyl) = CCC(=O)N[C@H](C(=O)*)[C@H](O)C(C)C; X1 = CC(C)[C@@H](O[*:3])[C@H](N[*:1])C(=O)[*:2]; NMeT = CN[C@H](C(=O)O)[C@@H](C)O; dPhLac = O=C(O)[C@H](O)Cc1ccccc1; NMeA = CN[C@@H](C)C(=O)O; NMeDha = C=C(NC)C(=O)O
Property Measured: Cmax (nM)
// note: answer is a bare numeric in nM

Inquiry: Check the records and state Cmax for C=C1C(=O)N[C@@H](C)C(=O)N(C)[C@@H](C)C(=O)N[C@@H]([C@H](OC(=O)[C@@H](NC(=O)CC)[C@H](O)C(C)C)C(C)C)C(=O)N(C)[C@@H]([C@@H](C)OC)C(=O)O[C@H](C(C)C)[C@H](NC(C)=O)C(=O)O[C@H](Cc2ccccc2)C(=O)N1C [Compound (A1)] (Ac-[X1][dPhLac][NMeDha]A[NMeA][X1](Leu(3R-OH,Nα-propionyl))[NMeT](Me); ester 1-C)
Reply text: 83

====

- Assay Summary: PK of Compound (A2) in female balb/c mice
- Format: in vivo
- Stated Conditions: mouse, in vivo, 1 mg/kg iv
Positions of bridges follow the written chain, without caps; N, C: chain ends. Non-standard residues stand in square brackets, D forms with d. Residues, ends and D or L forms follow the SMILES beside them. Leu(3R-O(AcLeu(3R-OH))) = CC(=O)N[C@H](C(=O)O[C@H](C(C)C)[C@H](N)C(=O)O)[C@H](O)C(C)C; NMeT = CN[C@H](C(=O)O)[C@@H](C)O; dPhLac = O=C(O)[C@H](O)Cc1ccccc1; NMeA = CN[C@@H](C)C(=O)O; NMeDha = C=C(NC)C(=O)O
Property Measured: half-life

Inquiry: Consider the compound C=C1C(=O)N[C@@H](C)C(=O)N(C)[C@@H](C)C(=O)N[C@@H]([C@H](OC(=O)[C@@H](NC(C)=O)[C@H](O)C(C)C)C(C)C)C(=O)N(C)[C@@H]([C@@H](C)OC)C(=O)O[C@H](C)[C@H](NC(C)=O)C(=O)O[C@H](Cc2ccccc2)C(=O)N1C [Compound (A2)] (Ac-T[dPhLac][NMeDha]A[NMeA][Leu(3R-O(AcLeu(3R-OH)))][NMeT](Me); ester 1-C) and give its recorded half-life.
Reply text: 24 min

====

- Assay Summary: Stability of Compound (A2), plasma, human
- Type: in vitro ADME
- Stated Conditions: read-out: Plasma t½ (converted)
Positions of bridges follow the written chain, without caps; N, C: chain ends. Non-standard residues stand in square brackets, D forms with d. Residues, ends and D or L forms follow the SMILES beside them. Leu(3R-O(AcLeu(3R-OH))) = CC(=O)N[C@H](C(=O)O[C@H](C(C)C)[C@H](N)C(=O)O)[C@H](O)C(C)C; NMeT = CN[C@H](C(=O)O)[C@@H](C)O; dPhLac = O=C(O)[C@H](O)Cc1ccccc1; NMeA = CN[C@@H](C)C(=O)O; NMeDha = C=C(NC)C(=O)O
Property Measured: half-life
A complete answer gives the number followed by the unit.

Inquiry: Please give measured half-life of the following entry: C=C1C(=O)N[C@@H](C)C(=O)N(C)[C@@H](C)C(=O)N[C@@H]([C@H](OC(=O)[C@@H](NC(C)=O)[C@H](O)C(C)C)C(C)C)C(=O)N(C)[C@@H]([C@@H](C)OC)C(=O)O[C@H](C)[C@H](NC(C)=O)C(=O)O[C@H](Cc2ccccc2)C(=O)N1C [Compound (A2)] (Ac-T[dPhLac][NMeDha]A[NMeA][Leu(3R-O(AcLeu(3R-OH)))][NMeT](Me); ester 1-C)
Reply text: 2 h
